# Test system: ATP;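 note: ATP exposure 15 min at 22 °C before imaging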
# test.summary: switch fluorescence ratio, 500 uM ATP over buffer (Cy3 cluster intensity, sum of 5 cycles each) (fold (ratio)); higher = stronger signal-on switching upon ATP binding; sequences stand for … in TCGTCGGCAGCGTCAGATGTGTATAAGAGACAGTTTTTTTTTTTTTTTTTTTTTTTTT…TC
# test.parameters: aptamer strand: ATP DNA aptamer (quencher-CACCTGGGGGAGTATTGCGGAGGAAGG + anchor), 100 nM annealed; ATP concentration: 500 uM
Recorded switch fluorescence ratio, one value per entry.
reported.endpoint: switch fluorescence ratio

    primary_sequence  measured
 0        AATTAGGGGG     0.981
 1        ATGTAATGAT      1.02
 2        GAGATCGTAT     0.991
 3        GCACCTCAAT      1.25
 4        GGGTGTGCGC      1.01
 5        CAATTCGAGC     0.988
 6        GTTAATTGAT         1
 7        GCAGCGGCTG     0.994
 8        TTTCGGAGAG     0.989
 9        AATTTGCGGC     0.982
10        AGGGGAGTAT      1.45
11        TGGTAGAGGG     0.986
12        GGAACTCGCT      1.02
13        ATCCGTAGGT     0.995
14        CATGAGGTTC     0.974
15        TAATACGGCG      1.01
16        GAAGTAGAGT     0.963
17        CTAAGGATGC      1.03
18        CGGCAGTATC      1.51
19        TCTGGATTCA     0.986
20        AGAAGTTGAG     0.984
21        GGAAGTAGCC     0.959
22        GGTGTGCCAT      0.99
23        AGATGCTGGT     0.994
24        ATTATGGGTT     0.995
25        CGCTTTACTA      2.21
26        GTTGTTACAA         1
27        ATATTCTTCC      1.96
28        ATGATGGGTG      1.01
29        ATACGGGGTT      1.01
30        GCTTTCCTTA     0.991
31        CCGGTTATAA      1.28
32        TACCTGCCGG      1.08
33        TGTGATTGGG     0.988
34        AATTGGGGGG     0.998
35        GGGGCATCTT      1.01
36        GTGGGTTATT     0.999
37        TGGCGAAGTT     0.997
38        GAAATATGTT     0.999

----------
# Tested on: ATP;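 note: ATP exposure 15 min at 22 °C before imaging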
# test.summary: switch fluorescence ratio, 500 uM ATP over buffer (Cy3 cluster intensity, sum of 5 cycles each) (fold (ratio)); higher = stronger signal-on switching upon ATP binding; sequences stand for … in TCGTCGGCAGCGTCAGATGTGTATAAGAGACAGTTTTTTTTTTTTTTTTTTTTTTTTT…TC
# test.parameters: aptamer strand: ATP DNA aptamer (quencher-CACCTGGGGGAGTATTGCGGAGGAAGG + anchor), 100 nM annealed; ATP concentration: 500 uM
reported.endpoint: switch fluorescence ratio

>>> df
    primary_sequence  measured
 0        CCAGAATTCG      0.98
 1        TAGCCCTGCT      1.03
 2        TCTTAGGAGG     0.969
 3        TTGATTTTGG     0.988
 4        AAGATGGGGA      1.01
 5        TCAACCAAAA      1.02
 6        TTTAAGGGAC      1.05
 7        CCGCGGGTTG      1.05
 8        AAAGGTTCTG     0.992
 9        AGCGGATGTG     0.978
10        ATGGGTGTGC         1

----------
Recorded switch fluorescence ratio, one value per entry.
# Test system: ATP;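 note: ATP exposure 15 min at 22 °C before imaging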
# test.summary: switch fluorescence ratio, 500 uM ATP over buffer (Cy3 cluster intensity, sum of 5 cycles each) (fold (ratio)); higher = stronger signal-on switching upon ATP binding; sequences stand for … in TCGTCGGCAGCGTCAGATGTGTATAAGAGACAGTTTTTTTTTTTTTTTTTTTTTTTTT…TC
# test.parameters: aptamer strand: ATP DNA aptamer (quencher-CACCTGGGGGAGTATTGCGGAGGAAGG + anchor), 100 nM annealed; ATP concentration: 500 uM
reported.endpoint: switch fluorescence ratio

>>> df
   primary_sequence  assayed_system  measured
0        GAGTTCAGGT             ATP      1.01
1        CATAGCTTTT             ATP      1.01
2        GAAGACCGGT             ATP     0.985
3        GAAAAAGCCG             ATP      1.01
4        ATTTTAAGTA             ATP     0.987
5        TTCTCACTTG             ATP      1.02
6        CGGGCTTGGT             ATP      1.01
7        AGTTAGTAGT             ATP     0.981
8        CAGCCTATGG             ATP     0.991

----------
# System: ATP;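 note: ATP exposure 15 min at 22 °C before imaging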
# test.summary: switch fluorescence ratio, 500 uM ATP over buffer (Cy3 cluster intensity, sum of 5 cycles each) (fold (ratio)); higher = stronger signal-on switching upon ATP binding; sequences stand for … in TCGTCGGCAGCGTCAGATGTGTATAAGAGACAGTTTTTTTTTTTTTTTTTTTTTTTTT…TC
# test.parameters: aptamer strand: ATP DNA aptamer (quencher-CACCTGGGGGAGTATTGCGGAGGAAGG + anchor), 100 nM annealed; ATP concentration: 500 uM
reported.endpoint: switch fluorescence ratio

In [3]: df
Out[3]:
    primary_sequence  measured
 0        TGGCGCGTAC      1.81
 1        TGTTAGGGTG      1.04
 2        TCGGAGTCTC      1.13
 3        GGGGGAACAG     0.991
 4        GGTTTGTGGT      1.03
 5        TTTGAGGTGC      1.06
 6        ATGGTTACGG         1
 7        ACATTTGTGG      1.01
 8        TTAGGGACGC      1.08
 9        ACTGAGCCTG      1.06
10        TCAGTGCCAG     0.992
11        TAAAGCATTA      1.04
12        TAACAGGTTG      1.02
13        CGGTTAACGT      1.01
14        TTATGAGGTT      1.02
15        AAGGAGGGTG      1.02
16        AGCCATTTGT      1.02
17        ATTAATTAAT         1
18        ACGTTTGTTT     0.971

----------
# Tested on: ATP;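 note: ATP exposure 15 min at 22 °C before imaging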
# test.summary: switch fluorescence ratio, 500 uM ATP over buffer (Cy3 cluster intensity, sum of 5 cycles each) (fold (ratio)); higher = stronger signal-on switching upon ATP binding; sequences stand for … in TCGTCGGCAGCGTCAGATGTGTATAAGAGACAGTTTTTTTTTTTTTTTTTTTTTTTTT…TC
# test.parameters: aptamer strand: ATP DNA aptamer (quencher-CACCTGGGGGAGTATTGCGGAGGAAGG + anchor), 100 nM annealed; ATP concentration: 500 uM
reported.endpoint: switch fluorescence ratio

>>> df
    primary_sequence  measured
 0        TGGGTTTAGC         1
 1        AATCAGGGTA      1.01
 2        TTGTTGTGTG     0.973
 3        TTGCTTCGTT      1.02
 4        GGTAATTTGG         1
 5        GCCAGGGACG      1.02
 6        GCCGTCTTGA      1.01
 7        GAGTTGCTTA      1.01
 8        TTGTGAATTC     0.977
 9        CAGTTAGATT      1.01
10        GATGGGGGAG     0.999
11        ATTTTATGAC      1.01
12        GAAAGTGTGG     0.971
13        AGGTCTATGC     0.975
14        TAGTCTTAGG     0.973
15        TTTTTGCCTT         1
16        GAGTAAGATT      1.02
17        GGGGGCGGGG      1.01
18        TTAATTAGGT      1.02
19        TAATTGGGAA     0.997
20        GTGCCTAGTG      1.02
21        CATCATGTGT     0.971
22        GGACGTTTTT      1.01
23        GTCGTAGGAT     0.992
24        AAAGTGATTG     0.972
25        ACCGTATGGC      1.02
26        GGCCTAATAG         1
27        CGAGTGCCCA     0.996
28        TTTCTAGAGA         1
29        GCAGAATATT     0.998
30        ATGTTTTGTA         1
31        TGTAAGAGAT      1.01
32        AAGGTTTGTT     0.996
33        CGATGGCTGG     0.976
34        TAGTTGCTCA     0.993
35        TTGGTTCGCC         1
36        GAATTAACAA     0.999
37        TTTGGGTGAT      1.02
38        CTAAAGGGGG     0.998
39         CTGTTGTTG         1
40        TTGAAGATAA      1.02
41        CATAGATTTT     0.989
42        TATCTGAACG      1.01
43        TTTGGGCCGA     0.987
44        CAGCATAAAG      1.02
